biological target: Dopamine D2 receptor (Homo sapiens); construct: NIMH Psychoactive Drug Screening Program (PDSP); test: PDSP radioligand binding; settings: read-out: 3-MP concentration required to induce 50% inhibition of PDSP radioligand binding
Sequence (P14416 whole entry): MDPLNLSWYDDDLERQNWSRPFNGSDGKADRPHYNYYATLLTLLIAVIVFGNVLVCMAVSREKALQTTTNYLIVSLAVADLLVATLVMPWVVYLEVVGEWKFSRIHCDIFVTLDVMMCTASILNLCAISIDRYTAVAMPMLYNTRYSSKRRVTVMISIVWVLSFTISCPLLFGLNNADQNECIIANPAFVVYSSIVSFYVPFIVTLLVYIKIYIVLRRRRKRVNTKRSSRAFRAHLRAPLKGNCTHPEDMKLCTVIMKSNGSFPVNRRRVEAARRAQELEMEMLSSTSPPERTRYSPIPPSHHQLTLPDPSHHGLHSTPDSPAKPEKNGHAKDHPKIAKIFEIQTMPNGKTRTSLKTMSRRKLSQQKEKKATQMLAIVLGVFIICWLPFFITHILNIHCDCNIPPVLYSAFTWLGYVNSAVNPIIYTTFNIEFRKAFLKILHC
pIC50: −log10 of the molar value.
MEASURED_METRIC: pIC50

Task: What does the record list as pIC50 for Nc1cccc2c1C(=S)N(C1CCC(=O)NC1=O)C2=O (stereo not shown) [3-MP, 3-Monothiopomalidomide] ?
Result: < 5.00

---

Target protein (sequence): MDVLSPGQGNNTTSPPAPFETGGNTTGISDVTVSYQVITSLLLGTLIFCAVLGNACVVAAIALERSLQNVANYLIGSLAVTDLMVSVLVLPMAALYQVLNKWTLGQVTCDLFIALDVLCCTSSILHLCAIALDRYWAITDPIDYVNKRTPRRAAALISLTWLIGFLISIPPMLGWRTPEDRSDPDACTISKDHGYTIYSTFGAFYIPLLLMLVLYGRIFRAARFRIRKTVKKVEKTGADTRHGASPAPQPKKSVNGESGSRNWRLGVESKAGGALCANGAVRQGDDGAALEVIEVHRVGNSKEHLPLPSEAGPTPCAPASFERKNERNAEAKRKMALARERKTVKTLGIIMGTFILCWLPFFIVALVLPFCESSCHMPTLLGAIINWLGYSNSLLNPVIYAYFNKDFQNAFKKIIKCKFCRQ
pIC50: −log10 of the molar value.
MEASURED_METRIC: pIC50

Task: Quick one: pIC50 for Nc1cccc2c1C(=S)N(C1CCC(=O)NC1=O)C2=O (stereo not shown) [3-MP, 3-Monothiopomalidomide] ?
Result: < 5.00

---

test: Liver microsomal stability, rat; conditions: Sprague Dawley, rat, microsomes
MEASURED_METRIC: microsomal CLint at 1 μM (µL/min/mg)
Your answer is read as µL/min/mg, so omit the unit and give the number.

Task: Which measured microsomal CLint at 1 μM value corresponds to "C[C@]12CC[C@H]3[C@@H](CCC4=CC(=O)CC[C@@]43C)[C@@H]1CC[C@@H]2O" ?
Result: 2170

---

assay: Pharmacokinetics in the rat, I.V. and P.O.; type: in vivo; settings: po; rat plasma, P.O. 5 mg/kg
MEASURED_METRIC: Cmax
# do not omit the unit; it follows the number

Task: Which Cmax is listed for Nc1cccc2c1C(=S)N(C1CCC(=O)NC1=O)C2=O (stereo not shown) [3-MP, 3-Monothiopomalidomide] ?
Result: 1020 ng/mL

---

Target protein (sequence): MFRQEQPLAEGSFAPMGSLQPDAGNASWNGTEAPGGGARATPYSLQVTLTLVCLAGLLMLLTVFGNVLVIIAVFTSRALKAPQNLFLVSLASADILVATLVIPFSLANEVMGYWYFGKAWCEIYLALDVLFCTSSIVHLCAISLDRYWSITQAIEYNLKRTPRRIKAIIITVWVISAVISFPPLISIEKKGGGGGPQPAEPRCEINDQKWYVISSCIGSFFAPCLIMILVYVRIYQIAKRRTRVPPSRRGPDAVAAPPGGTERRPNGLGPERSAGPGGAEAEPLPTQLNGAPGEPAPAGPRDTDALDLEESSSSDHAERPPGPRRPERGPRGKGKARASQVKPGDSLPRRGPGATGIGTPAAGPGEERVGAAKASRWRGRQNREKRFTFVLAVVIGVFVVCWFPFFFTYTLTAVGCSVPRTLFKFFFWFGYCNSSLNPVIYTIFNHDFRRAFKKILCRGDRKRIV
pIC50: −log10 of the molar value.
MEASURED_METRIC: pIC50

Task: May I ask what pIC50 has been recorded for Nc1cccc2c1C(=S)N(C1CCC(=O)NC1=O)C2=O (stereo not shown) [3-MP, 3-Monothiopomalidomide] ?
Result: < 5.00
